Where do these numbers come from? They come from patent US9073820B2.

Assay: Pharmacokinetics of Compound 4 in mice (IV and PO)
Assay type: in vivo, BALB/c nude female mice
Details: female, BALB/c nude, mouse, plasma, oral, 20 mg/kg, 20 mg/kg PO, 8 hr, G6; read-out: Plasma concentration G6
metric: concentration at 8 hr (ng/mL)
Output spec: scalar in ng/mL, unitless text.

Notebook: NCCCOc1cc2ccccc2cc1C(=O)NCCCOc1cc2ccccc2cc1C(=O)Nc1ccc(Cl)cc1O [Compound 4] , concentration at 8 hr read as 41.7

---

Experiment: Pharmacokinetics of Compound 4 in mice (IV and PO)
Format: in vivo, BALB/c nude female mice
Conditions: female, BALB/c nude, mouse, plasma; 20 mg/kg PO
metric: AUC(0-t)
State the result as a value with its unit after it.

Notebook: NCCCOc1cc2ccccc2cc1C(=O)NCCCOc1cc2ccccc2cc1C(=O)Nc1ccc(Cl)cc1O , AUC(0-t) read as 1620 ng·h/mL
